tested on: rodent lifetime carcinogenesis bioassay, tumor incidence TD50; test: carcinogenic potency in animals, long-term in vivo studies, CPDB compilation (AID 1745844); conditions: rat; strain Fischer 344; females; in drinking water; site: liver; lesion: hepatocellular carcinoma; dosed 50 weeks; study length 75 weeks
recorded.endpoint: TD50

{"columns": ["compound", "TD50"],
 "data": [
  ["CC(O)CN(CCO)N=O (configuration not stated)", "1.02 mg/kg/day"]
]}

Data point: `CC(=O)CN(CC(C)=O)N=O` ; TD50 = 0.582 mg/kg/day

====

system: rodent lifetime carcinogenesis bioassay, tumor incidence TD50; experiment: carcinogenic potency in animals, long-term in vivo studies, CPDB compilation (AID 1745844); details: mouse; strain C57BL/6N; males; in feed; site: liver; lesion: several types; types named in the paper; dosed 89 weeks; study length 91 weeks
recorded.endpoint: TD50

The compound identified as CC(C)(Oc1ccc(C2CC2(Cl)Cl)cc1)C(=O)O (stereo unspecified) registered its TD50 at 12.1 mg/kg/day
